Taken from PubChem BioAssay (NCATS).

- PROTOCOL_DESCRIPTION: Vero cells viability qHTS for Zika virus inhibitors (AID 1347167)
- REPORTED_CONDITIONS: cytotoxicity counter-screen (Zika); series mostly up to 45.9 µM
Inconclusive results are not listed. Activity calls are given as the source filed them. Calls follow the shape of the dose curve; as a rule, active = well fitted cell-killing curve with a large enough effect; inconclusive = small, poorly fitted or top-dose-only effect; inactive = flat fitted curve, though single readings scatter.
Outcome codes: t for active, f for inactive

INSERT INTO measurements (compound, qualitative_label) VALUES
  ('Cc1c(OCC(F)(F)F)ccnc1CS(=O)c1nc2ccccc2[nH]1 (stereo unspecified)', 'f'),
  ('CN(C)c1ccc(O)c2c1C[C@H]1C[C@H]3[C@H](N(C)C)C(=O)C(C(N)=O)=C(O)[C@@]3(O)C(=O)C1=C2O', 'f'),
  ('COc1c2occc2cc2ccc(=O)oc12', 'f'),
  ('Cc1nc(-c2ccc(OCC(C)C)c(C#N)c2)sc1C(=O)O', 'f'),
  ('CCc1nc(N)nc(N)c1-c1ccc(Cl)cc1', 'f'),
  ('Cc1nc(Nc2ncc(C(=O)Nc3c(C)cccc3Cl)s2)cc(N2CCN(CCO)CC2)n1', 't');
